Recorded values, source the supplement of paper PMC10567573.

B1: APBB1IP (parent)
chain: FNYSVGFKDLNESLNALEDQDLDA

- Variants of: B1
- test protocol: protein stability index of a GFP-peptide fusion (GPS, HEK-293T) (PSI 1-6); higher = more stable;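 further: lentivirally expressed fusions sorted by FACS into six bins by GFP to DsRed ratio, PSI derived from sequencing read proportions per bin multiplied by bin number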
- study conditions: c terminus: a fixed tail appended
experimental readout: protein stability index
// return just the number, without any unit appended

Name the recorded protein stability index for A16L .
4.04

Also Q20Y ?
3.85

Also S13D ?
4.31

Also L17A ?
4.63
